Listed here: compounds with reported Ki for Fatty acid synthase [2202-2509] (Homo sapiens, UniProt P49327).
# answer = value followed by unit

INSERT INTO assay_data (smiles_text, measured_quantity, result) VALUES
  ('Cc1ccccc1N1C(=O)NC(=O)C(=Cc2ccc(-c3ccc(F)cc3)o2)C1=O', 'Ki', '910 nM');

Answer for every listed entry: what is its Ki? The entries follow.
1. O=C1NC(=O)N(c2cccc(Br)c2)C(=O)C1=Cc1ccc(-c2ccccc2[N+](=O)[O-])o1
2. Cc1cc(C)cc(N2C(=O)NC(=O)C(=Cc3ccc(-c4ccccc4)o3)C2=O)c1
3. O=C1NC(=O)N(Cc2ccccc2)C(=O)/C1=C/c1ccc(-c2ccccc2Cl)o1

880 nM
380 nM
850 nM
